Each entry below carries its recorded Mutant vs. 4E4.2 Parent B/D Ratio.
- assayed system: T1, human CGRP receptor extracellular domain (ECD) (human, UniProt Q16602 23-138; O60894 27-117)
- T1 construct: also called CGRP receptor ECD; human CGRP receptor ECD
- T1 sequence (Q16602 23-138 limits assumed, chain 1 of 2): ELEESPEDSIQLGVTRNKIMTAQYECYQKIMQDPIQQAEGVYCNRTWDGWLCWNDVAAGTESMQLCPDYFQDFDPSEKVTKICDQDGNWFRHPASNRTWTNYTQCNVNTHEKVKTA
- T1 sequence (O60894 27-117 limits assumed, chain 2 of 2): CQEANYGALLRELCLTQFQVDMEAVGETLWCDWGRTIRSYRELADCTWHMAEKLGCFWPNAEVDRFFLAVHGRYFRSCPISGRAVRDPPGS
- measurement notes: yeast-displayed Fab, FACS, 1 nM human CGRP receptor ECD
Supply the numeric figure in fold, leaving out any unit text.

See these solved cases before continuing.
anti-CGRP receptor variant 15, yeast-displayed Fab (Fab, V domains shown, also called Variant Ab ID 15) VH: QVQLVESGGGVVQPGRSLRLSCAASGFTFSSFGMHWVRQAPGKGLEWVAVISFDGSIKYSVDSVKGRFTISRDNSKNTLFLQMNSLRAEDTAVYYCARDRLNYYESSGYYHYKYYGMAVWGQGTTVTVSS VL: QSVLTQPPSVSAAPGQKVTISCSGSSSNIGNNYVSWYQQLPGTAPKLLIYDNNKRPSGIPDRFSGSKSGTSATLGITGLQTGDEADYYCGTWDWWRKAVIFGGGTKLTVLG :: 1.3
anti-CGRP receptor variant 07, yeast-displayed Fab (Fab, V domains shown, also called Variant Ab ID 07) VH: QVQLVESGGGVVQPGRSLRLSCAASGFYFMTYGMHWVRQAPGKGLEWVAVISFDGSIKYSVDSVKGRFTISRDNSKNTLFLQMNSLRAEDTAVYYCARDRLNYYESSGYYHYKYYGMAVWGQGTTVTVSS VL: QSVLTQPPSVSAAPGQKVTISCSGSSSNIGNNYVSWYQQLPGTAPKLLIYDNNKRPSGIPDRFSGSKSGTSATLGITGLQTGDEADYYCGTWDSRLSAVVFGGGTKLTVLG :: 1.8

// switching to the query binder
Entry anti-CGRP receptor variant 09, yeast-displayed Fab (Fab, V domains shown, also called Variant Ab ID 09) VH: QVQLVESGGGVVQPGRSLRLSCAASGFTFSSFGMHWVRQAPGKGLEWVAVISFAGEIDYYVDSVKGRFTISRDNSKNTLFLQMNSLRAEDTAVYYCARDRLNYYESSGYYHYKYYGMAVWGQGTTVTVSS VL: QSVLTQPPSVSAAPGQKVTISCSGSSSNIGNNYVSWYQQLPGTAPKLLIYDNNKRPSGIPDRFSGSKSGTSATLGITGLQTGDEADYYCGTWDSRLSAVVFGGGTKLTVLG has what Mutant vs. 4E4.2 Parent B/D Ratio?
3
